# subject_of_test: T1, Axl protein (human, UniProt P30530 26-451)
# T1 construct: extracellular domain; also called human Axl; hAxl
# T1 sequence (looked up): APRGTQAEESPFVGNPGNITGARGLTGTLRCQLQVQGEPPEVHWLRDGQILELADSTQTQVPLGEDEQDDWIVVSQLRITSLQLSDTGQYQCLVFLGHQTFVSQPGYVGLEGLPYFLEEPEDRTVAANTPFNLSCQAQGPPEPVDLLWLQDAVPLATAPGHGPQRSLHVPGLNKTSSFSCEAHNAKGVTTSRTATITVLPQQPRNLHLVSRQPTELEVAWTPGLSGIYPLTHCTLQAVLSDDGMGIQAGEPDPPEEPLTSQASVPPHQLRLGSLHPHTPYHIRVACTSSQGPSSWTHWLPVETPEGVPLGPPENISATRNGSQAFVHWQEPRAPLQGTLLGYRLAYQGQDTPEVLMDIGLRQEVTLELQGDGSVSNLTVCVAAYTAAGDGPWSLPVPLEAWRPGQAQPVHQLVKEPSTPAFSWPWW
# assay_text: ELISA, 1:9 dilution, pH 6.0 over pH 7.4
Listing of entries alongside the reported Affinity ELISA CPE mutant ratio (1:9, pH 6.0/7.4).
measured_quantity: Affinity ELISA CPE mutant ratio (1:9, pH 6.0/7.4) (ratio)

binder	unit_descriptor	value_observed
HC-S059I (antibody, V domains shown) VH: EVQLVQSGAEVKKPGATVKISCKVSGYSFTGHTMNWIRQPPGKGLEWIGLIKPSNGGTIYNQKFKGRVTISADKSISTAYLQWSSLKASDTAMYYCAHGHYESYFAMDYWGQGTLVTVSS VL: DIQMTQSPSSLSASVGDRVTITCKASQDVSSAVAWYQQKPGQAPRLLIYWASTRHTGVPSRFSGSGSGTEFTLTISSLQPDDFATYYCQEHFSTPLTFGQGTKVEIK	ratio	2.06
HC-G111H (antibody, V domains shown) VH: EVQLVQSGAEVKKPGATVKISCKVSGYSFTGHTMNWIRQPPGKGLEWIGLIKPSNGGTSYNQKFKGRVTISADKSISTAYLQWSSLKASDTAMYYCAHGHYESYFAMDYWHQGTLVTVSS VL: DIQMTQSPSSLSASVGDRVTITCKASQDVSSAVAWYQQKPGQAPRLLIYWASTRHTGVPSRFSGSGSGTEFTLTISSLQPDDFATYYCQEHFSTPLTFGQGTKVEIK	ratio	1.79
HC-F105T (antibody, V domains shown) VH: EVQLVQSGAEVKKPGATVKISCKVSGYSFTGHTMNWIRQPPGKGLEWIGLIKPSNGGTSYNQKFKGRVTISADKSISTAYLQWSSLKASDTAMYYCAHGHYESYTAMDYWGQGTLVTVSS VL: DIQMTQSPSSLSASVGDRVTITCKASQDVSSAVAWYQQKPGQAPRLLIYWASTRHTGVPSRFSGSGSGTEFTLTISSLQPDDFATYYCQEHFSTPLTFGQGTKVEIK	ratio	4.02
